# TEST DESCRIPTION: Cytotoxicity against human HepG2 cells after 72 hrs by crystal violet staining method
# Format: cell-based
# ASSAY SETUP: read-out: MIC50
MEASURED PARAMETER: CC50 at 72 h

> print(dat)
                               smiles.input  experimental.result
1        O=C(CCC1CCCCC1)Nc1ncc(Cc2ccccc2)s1              > 40 µM
2     O=C(Nc1ncc(Cc2cccc3ccccc23)s1)C1CCCC1              > 40 µM
3    O=C(CCC1CCCCC1)Nc1ncc(Cc2cccc(Cl)c2)s1                39 µM
4          O=C(Nc1ncc(Cc2ccccc2)s1)C1CCCCC1              > 40 µM
5    O=C(Nc1ncc(Cc2cccc3ccccc23)s1)C1CCCCC1                39 µM
6           O=C(Nc1ncc(Cc2ccccc2)s1)C1CCCC1              > 40 µM
7  O=C(CCC1CCCCC1)Nc1ncc(Cc2cccc3ccccc23)s1              > 40 µM
8       O=C(CCC1CCCCC1)Nc1ncc(CCc2ccccc2)s1              > 40 µM

In plain terms, O=C(CCC1CCCCC1)Nc1ncc(Cc2cccc(F)c2)s1 has a documented CC50 at 72 h of 40 µM

// recorded CC50 at 72 h for O=C(CC1CCCCC1)Nc1ncc(Cc2ccccc2)s1 : > 40 µM

Value of CC50 at 72 h reported for the compound O=C(CC1CCCCC1)Nc1ncc(Cc2cccc3ccccc23)s1 is 37 µM
